B1: VPS39 (parent)
chain: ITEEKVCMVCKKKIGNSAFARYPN

Variants of: B1
TEST METHOD NOTES: protein stability index of a GFP-peptide fusion (GPS, HEK-293T) (PSI 1-6); higher = more stable;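 further: lentivirally expressed fusions sorted by FACS into six bins by GFP to DsRed ratio, PSI derived from sequencing read proportions per bin multiplied by bin number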
TEST PARAMETERS: c terminus: a fixed tail appended
ENDPOINT: protein stability index
Please reply with the value in numeric form only.

Request: Any idea what its protein stability index is? The variant is G15V
Response: 2.86

Request: Can you handle A20R next?
Response: 2.62

Request: Can you handle Y22Q next?
Response: 2.77

Request: Can you handle V9N next?
Response: 3.33

Request: Can you handle S17Q next?
Response: 3.1

Request: Can you handle A18T next?
Response: 2.52

Request: Can you handle E3Y next?
Response: 2.03

Request: Can you handle C10D next?
Response: 3.67

Request: Can you handle E3M next?
Response: 1.39

Request: Can you handle E4R next?
Response: 2.15

Request: Can you handle K13R next?
Response: 2.29

Request: Can you handle R21K next?
Response: 2.77

Request: Can you handle R21M next?
Response: 2.71

Request: Can you handle C10R next?
Response: 3.96

Request: Can you handle P23N next?
Response: 2.32

Request: Can you handle P23K next?
Response: 2.13

Request: Can you handle N16K next?
Response: 2.34

Request: Can you handle K13N next?
Response: 2.33

Request: Can you handle A18D next?
Response: 3.65

Request: Can you handle I14H next?
Response: 4.23

Request: Can you handle E4I next?
Response: 2.06

Request: Can you handle V9C next?
Response: 2.67
